- SYSTEM TESTED: Serine/threonine-protein kinase pim-1 (Homo sapiens, UniProt P11309)
- Sequence (P11309 whole entry): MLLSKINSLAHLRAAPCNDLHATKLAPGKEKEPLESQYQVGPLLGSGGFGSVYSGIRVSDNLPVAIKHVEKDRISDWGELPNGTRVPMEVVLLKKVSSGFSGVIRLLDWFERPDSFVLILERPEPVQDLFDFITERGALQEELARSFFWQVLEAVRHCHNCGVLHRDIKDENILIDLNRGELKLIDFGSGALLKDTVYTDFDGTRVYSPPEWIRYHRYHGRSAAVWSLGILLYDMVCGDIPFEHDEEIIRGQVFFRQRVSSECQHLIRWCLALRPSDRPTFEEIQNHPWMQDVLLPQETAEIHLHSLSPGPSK
- PROCEDURE SUMMARY: Inhibition of recombinant PIM1 (unknown origin) expressed in Escherichia coli BL21(DE3) after 1 hr by HTRF assay
Structures can show the parent of a compound that is named as a salt.
PARAMETER: IC50 (nM)
The response must be a number in nM with no trailing unit.

Value of measured IC50 for the entry O=C1c2c(O)ccc(O)c2C(=O)c2c(NCCNCCO)ccc(NCCNCCO)c21 [MITOXANTRONE HYDROCHLORIDE] : 50.9

###

- SYSTEM TESTED: Platelet-derived growth factor receptor beta (Mus musculus, UniProt P05622)
- Sequence (P05622 whole entry): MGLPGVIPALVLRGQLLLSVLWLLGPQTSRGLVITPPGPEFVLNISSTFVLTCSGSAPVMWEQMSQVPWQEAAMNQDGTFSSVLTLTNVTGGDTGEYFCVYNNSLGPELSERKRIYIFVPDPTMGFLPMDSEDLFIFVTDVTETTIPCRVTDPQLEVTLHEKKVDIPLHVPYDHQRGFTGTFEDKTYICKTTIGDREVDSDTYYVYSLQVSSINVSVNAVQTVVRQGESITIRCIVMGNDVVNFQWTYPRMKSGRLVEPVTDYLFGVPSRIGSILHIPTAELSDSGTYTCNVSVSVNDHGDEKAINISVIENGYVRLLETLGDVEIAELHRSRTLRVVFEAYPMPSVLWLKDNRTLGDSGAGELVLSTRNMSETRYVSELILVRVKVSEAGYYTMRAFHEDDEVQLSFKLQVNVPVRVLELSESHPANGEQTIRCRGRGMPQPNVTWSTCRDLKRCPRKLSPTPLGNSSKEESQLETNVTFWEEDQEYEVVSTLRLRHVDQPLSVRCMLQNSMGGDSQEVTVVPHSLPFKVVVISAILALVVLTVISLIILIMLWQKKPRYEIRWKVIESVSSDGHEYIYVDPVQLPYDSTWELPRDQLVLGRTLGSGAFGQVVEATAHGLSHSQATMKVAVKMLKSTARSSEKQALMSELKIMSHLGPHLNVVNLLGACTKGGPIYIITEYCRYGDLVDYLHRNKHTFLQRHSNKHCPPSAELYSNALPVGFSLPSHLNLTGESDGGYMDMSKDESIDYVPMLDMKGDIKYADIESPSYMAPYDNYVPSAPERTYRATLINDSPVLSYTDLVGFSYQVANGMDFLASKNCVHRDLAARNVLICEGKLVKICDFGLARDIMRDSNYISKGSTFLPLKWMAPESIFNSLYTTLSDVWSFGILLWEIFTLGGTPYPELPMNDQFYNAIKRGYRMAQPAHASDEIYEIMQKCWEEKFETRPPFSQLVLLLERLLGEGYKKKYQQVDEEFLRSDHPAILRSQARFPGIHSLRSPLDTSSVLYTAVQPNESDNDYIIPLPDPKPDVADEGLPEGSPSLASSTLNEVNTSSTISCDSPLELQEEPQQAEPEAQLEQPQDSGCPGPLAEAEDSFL
PARAMETER: IC50

Kindly note: Platelet-derived growth factor receptor beta (Mus musculus, UniProt P05622), CNC(=O)c1cc(Oc2ccc(NC(=O)Nc3ccc(Cl)c(C(F)(F)F)c3)cc2)ccn1 [SORAFENIB] , IC50 value reported: < 100 nM

###

- PROCEDURE SUMMARY: Inhibition of Mycobacterium tuberculosis protein kinase B
PARAMETER: pIC50
Please treat pIC50 as minus the base-10 logarithm of the molar concentration.

The value of pIC50 measured for the compound O=C1c2c(O)ccc(O)c2C(=O)c2c(NCCNCCO)ccc(NCCNCCO)c21 turned out to be 6.10
